# protocol.description: Stability of Prostacyclin and of its anti-aggregatory activity (aqueous medium, storage)
# Type: physicochemical
# condition.set: room temperature, aqueous medium
assay.endpoint: half-life

Entry CCCCC[C@H](O)/C=C/[C@@H]1[C@H]2C/C(=C/CCCC(=O)O)O[C@H]2C[C@H]1O [Prostacyclin] ; half-life = ~10 min

These measurements were taken from patent US4539333A.
